Tested on: Pseudomonas aeruginosa ATCC 10145
Assay: MIC, standard dilution test, Pseudomonas aeruginosa ATCC 10145
Type: cell-based
Details: inoculum about 10^4 CFU/ml, 18-24 h at 37° C.
EXPERIMENTAL_READOUT: Minimal inhibitory concentration (MIC)

Some compounds with recorded Minimal inhibitory concentration (MIC):
COC(=O)C1NC(=O)C2NC(=O)C(NC(=O)C3NC(=O)C4NC(=O)C(Cc5ccc(c(Cl)c5)Oc5cc3cc(c5OCCCl)Oc3ccc(cc3Cl)C2O)NC(=O)C(N)c2ccc(O)c(c2)Oc2cc(O)cc4c2)c2ccc(O)c(c2)-c2c(O)cc(O)cc21 (centres unmarked) :: > 128
COC(=O)C1NC(=O)C2NC(=O)C(NC(=O)C3NC(=O)C4NC(=O)C(Cc5ccc(c(Cl)c5)Oc5cc3cc(c5OCCO)Oc3ccc(cc3Cl)C2O)NC(=O)C(N)c2ccc(O)c(c2)Oc2cc(O)cc4c2)c2ccc(O)c(c2)-c2c(O)cc(O)cc21 (centres unmarked) :: > 128
COC(=O)C1NC(=O)C2NC(=O)C(NC(=O)C3NC(=O)C4NC(=O)C(Cc5ccc(c(Cl)c5)Oc5cc3cc(c5OCCCCN)Oc3ccc(cc3Cl)C2O)NC(=O)C(N)c2ccc(O)c(c2)Oc2cc(O)cc4c2)c2ccc(O)c(c2)-c2c(O)cc(O)cc21 (centres unmarked) :: 32
NCCNC(=O)C(CCO)OC(=O)C1NC(=O)C2NC(=O)C(NC(=O)C3NC(=O)C4NC(=O)C(Cc5ccc(c(Cl)c5)Oc5cc3cc(c5OC(CCO)C(=O)NCCN)Oc3ccc(cc3Cl)C2O)NC(=O)C(N)c2ccc(O)c(c2)Oc2cc(O)cc4c2)c2ccc(O)c(c2)-c2c(O)cc(O)cc21 (centres unmarked) :: > 128
COC(=O)C1NC(=O)C2NC(=O)C(NC(=O)C3NC(=O)C4NC(=O)C(Cc5ccc(c(Cl)c5)Oc5cc3cc(c5OCCN3CCOCC3)Oc3ccc(cc3Cl)C2O)NC(=O)C(N)c2ccc(O)c(c2)Oc2cc(O)cc4c2)c2ccc(O)c(c2)-c2c(O)cc(O)cc21.Cl.Cl (centres unmarked) :: > 128

Look at this compound and give its reported Minimal inhibitory concentration (MIC). COC(=O)C1NC(=O)C2NC(=O)C(NC(=O)C3NC(=O)C4NC(=O)C(Cc5ccc(c(Cl)c5)Oc5cc3cc(c5OCCBr)Oc3ccc(cc3Cl)C2O)NC(=O)C(N)c2ccc(O)c(c2)Oc2cc(O)cc4c2)c2ccc(O)c(c2)-c2c(O)cc(O)cc21 (centres unmarked) > 128

# input compound: COC(=O)CNC(=O)CNCCOc1c2cc3cc1Oc1ccc(cc1Cl)C(O)C1NC(=O)C(NC(=O)C3NC(=O)C3NC(=O)C(Cc4ccc(c(Cl)c4)O2)NC(=O)C(N)c2ccc(O)c(c2)Oc2cc(O)cc3c2)c2ccc(O)c(c2)-c2c(O)cc(O)cc2C(C(=O)OCCBr)NC1=O (centres unmarked) ; wanted: its Minimal inhibitory concentration (MIC) > 128

Quick check: Minimal inhibitory concentration (MIC) of COC(=O)C1NC(=O)C2NC(=O)C(NC(=O)C3NC(=O)C4NC(=O)C(Cc5ccc(c(Cl)c5)Oc5cc3cc(c5OC(CCO)C(=O)O)Oc3ccc(cc3Cl)C2O)NC(=O)C(N)c2ccc(O)c(c2)Oc2cc(O)cc4c2)c2ccc(O)c(c2)-c2c(O)cc(O)cc21.Cl (centres unmarked) ? > 128
